Assay: supercomplex reporter luminescence per Hoechst cell count – Hoechst nuclei count (AID 1645838);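 also: control cybrid cells; higher means more mitochondrial supercomplex formation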
Conditions: Cells, luminescence/Hoechst cell count ratio, library stock concentration (final well concentration not given) 2 mM, hits give high values
The whole screen tested about 2,000 compounds, of which about 100 (5%) were called active. Many of the other results were omitted from the sample, so actives are more common in it than they were.
VALUE KIND: z-score

| MOLECULE | RESULT |
| --- | --- |
| CC(C)(C)CCN1C[C@@H]2C(CNC(=O)c3cc(Cl)cc(Cl)c3)[C@@H]2C1 (some centres undefined) | -0.303 (inactive) |
| COc1cc2ncnc(Nc3cc(Br)c(O)c(Br)c3)c2cc1OC | -0.971 (inactive) |
| COc1cc(N2CCOCC2)ccc1Nc1ncc(F)c(Nc2ccccc2NS(C)(=O)=O)n1 | 0.0927 (inactive) |
| O=C(Nc1ccc(S(=O)(=O)Nc2ccccc2Cl)c(Cl)c1)c1ccccn1 | 0.0843 (inactive) |

* * *

# z-score per record follows
Assay: supercomplex reporter luminescence per Hoechst cell count – Hoechst nuclei count (AID 1645838);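 also: control cybrid cells; higher means more mitochondrial supercomplex formation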
Settings: Cells, luminescence/Hoechst cell count ratio, library stock concentration (final well concentration not given) 278 uM, hits give high values
The campaign covered roughly 2,000 compounds. About 100 (5%) were called active. What follows is part of a selection rich in actives, with near analogues and random picks from the rest.

| COMPOUND | z-score |
| --- | --- |
| Cc1ccc(-c2nn(C(C)(C)C)c3ncnc(N)c23)cc1 | 0.621 |
| O=c1cc(N2CCOCC2)oc2c1ccc1ccccc12 | 0.075 |
| Cn1cc(-c2ccc3c(c2)CCN3C(=O)Cc2cccc(C(F)(F)F)c2)c2c(N)ncnc21 | -0.312 |
| CCC(=O)NCC1CC1c1cccc2c1CCO2 (centres undefined) | 0.113 |
| CN1CCN(c2ccc(Nc3cc(-c4cccc(-n5ccc6cc(C7CC7)cc(F)c6c5=O)c4CO)cn(C)c3=O)nc2)CC1 | 0.295 |
| COC(=O)NC(C)CNc1nccc(-c2cn(C(C)C)nc2-c2cc(Cl)cc(NS(C)(=O)=O)c2F)n1 (centres undefined) | -0.411 |
| O=C(O)c1ccc2nc(-c3cc(Cl)cc(Cl)c3)oc2c1 | 0.328 |
| CCN(CC)c1ccc(C=NNC(=O)c2ccc(O)cc2)cc1 | -0.201 |
| NC(=O)c1noc(C(CCCC2CCCCC2)CC(=O)NO)n1 (centres undefined) | -0.421 |
| O=C(O)c1ccc(-c2c[nH]c3ncc(-c4ccccc4)cc23)cc1C1CCCC1 | -0.179 |
| CC(=O)c1c(C)c2cnc(Nc3ccc(N4CCNCC4)cn3)nc2n(C2CCCC2)c1=O | 0.0516 |
| CN1c2ccc([N+](=O)[O-])cc2N=C(c2ccc(C(=O)O)cc2)c2cc3c(cc21)C(C)(C)CCC3(C)C | -0.194 |
| CS(=O)(=O)N1CCN(Cc2cc3nc(-c4cccc5[nH]ncc45)nc(N4CCOCC4)c3s2)CC1 | -0.083 |
| COc1cccc(-c2ccc(NC(=O)C3=C(C(=O)O)CCC3)c(F)c2)c1 | 0.11 |
| COc1cccc(OC)c1-c1ccc(CC(NC(=O)c2c(Cl)cccc2Cl)C(=O)O)cc1 (centres undefined) | -0.126 |
| CC(C=CC1=C(C)CCCC1(C)C)=CC=CC(C)=CC(=O)O | -0.063 |
| O=c1ncccn1C1OC(CO)C(O)C1O (centres undefined) | -0.313 |
| Cc1cc(N2CCOCC2)ccc1Nc1nc(NC2CCCCC2)c2[nH]cnc2n1 | -0.363 |
| O=C(Nc1cccc(Nc2ncc(Br)c(NCCc3cnc[nH]3)n2)c1)N1CCCC1 | 0.0145 |
| O=C(O)c1cc(O)c2ccccc2c1O | 1.17 |
| Cc1cnc(Nc2ccc(F)cc2Cl)nc1-c1c[nH]c(C(=O)NC(CO)c2cccc(Cl)c2)c1 (centres undefined) | -0.12 |
| COc1ccc(C(=O)C(=O)c2ccccc2)cc1 | -0.127 |
| O=C1C(Cc2ccc(O)cc2)N2C(=O)CCN(C(=O)NCc3ccccc3)C2CN1Cc1cccc2ccccc12 (centres undefined) | -0.452 |
| c1cc2c(cc1C1CCCCC1)c1c3n2CCNC3CCC1 (centres undefined) | -0.279 |
| CCOc1cc(CC(=O)NC(CC(C)C)c2ccccc2N2CCCCC2)ccc1C(=O)O (centres undefined) | -0.238 |
| Nc1nccc2c1ncn2C1C=C(CO)C(O)C1O (centres undefined) | 0.747 |
| Cn1c2cc(S(C)=O)sc2c2cnn(Cc3cccc(N)c3)c(=O)c21 (centres undefined) | 0.15 |
| Cc1ccc(NC(=O)c2cccc(C(C)(C)C#N)c2)cc1Nc1ccc2ncn(C)c(=O)c2c1 | 0.171 |
| O=C(Nc1cccc(Br)c1)c1cccc(S(=O)(=O)N2CCCCCC2)c1 | 0.273 |
